Procedure Summary: Rat plasma pharmacokinetics after oral administration (LC-MS/MS, noncompartmental model)
Condition Description: Wistar, rat, plasma, po, 16 mg kg^−1, t1/2 (half-life), rat plasma; oral SER-MP 16.0 mg kg^−1 (equimolar to SER dose); analyte SER-MP or released metabolite
Measurement Name: half-life (h)

compound="CC(C)c1c(CN(C)C2CCC(c3ccc(Cl)c(Cl)c3)c3ccccc32)n(C)n(-c2ccccc2)c1=O (stereo not shown)" measurement_name=half-life result_number=50

====

Procedure Summary: Rat plasma pharmacokinetics after oral administration (LC-MS/MS, noncompartmental model)
Condition Description: Wistar, rat, plasma, po, 16 mg/kg, Cmax (maximum plasma concentration), rat plasma; oral SER-MP 16.0 mg kg^−1 (equimolar to SER dose); analyte SER-MP or released metabolite
Measurement Name: Cmax

compound="CC(C)c1c(CN(C)C2CCC(c3ccc(Cl)c(Cl)c3)c3ccccc32)n(C)n(-c2ccccc2)c1=O (stereo not shown)" result="192 ng/mL"

# credit: paper PMC11773334
